- Experimental System: Solute carrier family 12 member 5 (Rattus norvegicus, UniProt Q63633)
- Sequence (Q63633 whole entry): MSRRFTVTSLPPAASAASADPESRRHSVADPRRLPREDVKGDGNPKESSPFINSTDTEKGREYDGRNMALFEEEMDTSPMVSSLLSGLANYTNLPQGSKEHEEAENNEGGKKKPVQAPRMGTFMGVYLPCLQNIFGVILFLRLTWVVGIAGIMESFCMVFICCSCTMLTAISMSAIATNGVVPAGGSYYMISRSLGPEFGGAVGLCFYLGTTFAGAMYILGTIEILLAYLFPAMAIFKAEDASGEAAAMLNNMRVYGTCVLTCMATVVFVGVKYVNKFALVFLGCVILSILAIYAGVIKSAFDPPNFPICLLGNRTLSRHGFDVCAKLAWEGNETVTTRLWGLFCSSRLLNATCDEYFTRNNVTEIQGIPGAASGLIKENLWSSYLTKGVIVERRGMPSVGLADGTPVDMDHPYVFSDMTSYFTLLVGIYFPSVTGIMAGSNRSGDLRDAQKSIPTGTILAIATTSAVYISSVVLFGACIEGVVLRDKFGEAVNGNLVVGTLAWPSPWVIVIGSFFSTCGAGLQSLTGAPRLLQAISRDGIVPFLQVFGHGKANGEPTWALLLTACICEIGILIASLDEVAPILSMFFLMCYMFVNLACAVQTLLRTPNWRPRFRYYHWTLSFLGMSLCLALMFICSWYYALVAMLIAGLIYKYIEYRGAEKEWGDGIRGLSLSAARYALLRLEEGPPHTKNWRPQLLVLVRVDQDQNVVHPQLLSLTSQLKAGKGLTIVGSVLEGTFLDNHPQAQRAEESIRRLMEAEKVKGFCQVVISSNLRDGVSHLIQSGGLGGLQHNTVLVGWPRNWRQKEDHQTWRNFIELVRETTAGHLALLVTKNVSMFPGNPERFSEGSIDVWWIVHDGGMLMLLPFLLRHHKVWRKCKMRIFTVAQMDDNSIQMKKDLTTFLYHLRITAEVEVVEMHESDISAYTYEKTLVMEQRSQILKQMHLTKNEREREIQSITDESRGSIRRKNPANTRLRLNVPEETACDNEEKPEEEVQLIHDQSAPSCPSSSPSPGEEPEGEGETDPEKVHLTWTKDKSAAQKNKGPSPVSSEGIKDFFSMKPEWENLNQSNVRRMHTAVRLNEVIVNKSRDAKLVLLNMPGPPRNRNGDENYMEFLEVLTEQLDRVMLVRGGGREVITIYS
- Protocol Summary: Inhibition of rat KCC2 expressed in human Sk-Hep cells assessed as […] off Rb+ flux by atomic absorption spectroscopic analysis
Measure: IC50

Illustrative cases are given below, each with its answer.
CC(=O)N1CCCC1(Cc1ccccc1)C(=O)CCc1ccccc1 (racemic) :: 300 nM
CC(=O)N1CCCC1(Cc1ccc(F)cc1)C(=O)CCc1ccc(F)cc1 (racemic) :: 200 nM

In the following, a different molecule is considered.
Request: Please look up its IC50: CC(=O)N1CCCC1(Cc1ccccc1)C1=N[C@H](c2ccccc2)CO1 (mixture of isomers)
Response: 1300 nM
